Tested on: Seedling johnsongrass
Assay: Pre-emergence herbicide test
Type: in vivo
Conditions: Sorghum halepense, 11.21 kg/ha, read-out: % plant inhibition (Sejg)
Each entry gets class 0 if its inhibition at 11210 g/ha stays under 80%, and class 1 if its inhibition at 11210 g/ha is 80% or above.

Please review the following examples before continuing.
structure.notation	cat
CCS(=O)(=O)N(c1cc(-c2nn(C)c(C(F)(F)F)c2Cl)c(Cl)cc1Cl)S(=O)(=O)CC	class 0
Cn1nc(C(F)(F)F)c(Cl)c1-c1cc(F)ccc1F	class 0
Cn1nc(C(F)(F)Cl)c(Cl)c1-c1ccc(Cl)cc1	class 0
Cc1cc(-c2nn(C)c(C(F)(F)F)c2Cl)c(F)cc1Cl	class 1
Cn1nc(C(F)(F)F)c(Cl)c1-c1ccc([N+](=O)[O-])cc1	class 0

In plain terms: is recorded inhibition at 11210 g/ha at least 80% for `Cn1nc(C(F)(F)F)c(Cl)c1-c1cc([N+](=O)[O-])c(F)cc1F` ?
class 0

hey, is inhibition at 11210 g/ha for this one >= 80%? `Cn1nc(C(F)F)c(Cl)c1-c1cc(F)ccc1F`
class 0

Decide: inhibition at 11210 g/ha of `Cn1nc(-c2cc(C(Br)Br)c(Cl)cc2F)c(Cl)c1C(F)(F)F` >= 80%?
class 0

State whether the measured inhibition at 11210 g/ha reaches 80%, counting equality as reaching it, for `Cn1nc(-c2cc([N+](=O)[O-])c(Cl)cc2Cl)c(Cl)c1C(F)(F)F`
class 0

Hello, I need to know if `Cn1nc(-c2ccc(Cl)cc2)c(Cl)c1C(F)(F)F` has measured inhibition at 11210 g/ha not below 80%. Thanks!
class 1

Just for reference, patent US5530126A is where these values come from.
